The reported measurements were obtained from ChEMBL document CHEMBL1131369.

IC50 values, listed per item
Target: Dihydroorotate dehydrogenase (quinone), mitochondrial (Homo sapiens, UniProt Q02127)
Sequence (Q02127 whole entry): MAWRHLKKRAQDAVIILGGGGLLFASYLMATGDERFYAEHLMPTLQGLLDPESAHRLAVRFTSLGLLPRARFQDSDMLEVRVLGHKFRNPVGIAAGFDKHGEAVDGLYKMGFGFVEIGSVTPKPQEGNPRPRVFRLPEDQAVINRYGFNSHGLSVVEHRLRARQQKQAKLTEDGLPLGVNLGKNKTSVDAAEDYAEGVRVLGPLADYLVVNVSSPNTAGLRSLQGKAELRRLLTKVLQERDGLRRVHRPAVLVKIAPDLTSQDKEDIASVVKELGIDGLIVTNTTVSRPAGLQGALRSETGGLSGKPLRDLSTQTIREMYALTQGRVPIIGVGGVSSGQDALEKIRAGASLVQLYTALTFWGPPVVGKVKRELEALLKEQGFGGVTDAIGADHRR
Assay: Immunosuppressive activity expressed as ability to inhibit human recombinant dihydroorotate dehydrogenase (DHODH)

{"columns": ["smilesNotation", "target", "rel", "IC50, µM"],
 "data": [
  ["CCCCCCc1oncc1/C(S)=N/c1ccc(OC(F)(F)F)cc1", "Dihydroorotate dehydrogenase (quinone), mitochondrial (Homo sapiens, UniProt Q02127)", ">", 50],
  ["CC(=O)/C(C#N)=C(/S)Nc1ccc(C(F)(F)F)cc1", "Dihydroorotate dehydrogenase (quinone), mitochondrial (Homo sapiens, UniProt Q02127)", "=", 0.8],
  ["CCCCCCc1oncc1C(=S)Nc1ccc(C#N)cc1", "Dihydroorotate dehydrogenase (quinone), mitochondrial (Homo sapiens, UniProt Q02127)", ">", 50],
  ["FC(F)(F)Oc1ccc(NC(=S)c2cnoc2C2CC2)cc1", "Dihydroorotate dehydrogenase (quinone), mitochondrial (Homo sapiens, UniProt Q02127)", "=", 0.8],
  ["CCc1oncc1/C(S)=N/c1ccc(OC(F)(F)F)cc1", "Dihydroorotate dehydrogenase (quinone), mitochondrial (Homo sapiens, UniProt Q02127)", "=", 0.7],
  ["N#Cc1ccc(NC(=S)c2cnoc2C2CCCCC2)cc1", "Dihydroorotate dehydrogenase (quinone), mitochondrial (Homo sapiens, UniProt Q02127)", ">", 50],
  ["Cc1oncc1/C(S)=N/c1ccc(OC(F)(F)F)cc1", "Dihydroorotate dehydrogenase (quinone), mitochondrial (Homo sapiens, UniProt Q02127)", "=", 7.2],
  ["FC(F)(F)c1ccc(NC(=S)c2cnoc2C2CCCCC2)cc1", "Dihydroorotate dehydrogenase (quinone), mitochondrial (Homo sapiens, UniProt Q02127)", ">", 50],
  ["CN(C)c1ccc(NC(=S)c2cnoc2C2CCCCC2)cc1", "Dihydroorotate dehydrogenase (quinone), mitochondrial (Homo sapiens, UniProt Q02127)", ">", 50],
  ["CCCCCCc1oncc1C(=S)Nc1ccc(N(C)C)cc1", "Dihydroorotate dehydrogenase (quinone), mitochondrial (Homo sapiens, UniProt Q02127)", ">", 50],
  ["CN(C)c1ccc(NC(=S)c2cnoc2C(C)(C)C)cc1", "Dihydroorotate dehydrogenase (quinone), mitochondrial (Homo sapiens, UniProt Q02127)", ">", 50],
  ["FC(F)(F)c1ccc(NC(=S)c2cnoc2C2CC2)cc1", "Dihydroorotate dehydrogenase (quinone), mitochondrial (Homo sapiens, UniProt Q02127)", "=", 3.2],
  ["CN(C)c1ccc(NC(=S)c2cnoc2C2CC2)cc1", "Dihydroorotate dehydrogenase (quinone), mitochondrial (Homo sapiens, UniProt Q02127)", ">", 50],
  ["FC(F)(F)Oc1ccc(NC(=S)c2cnoc2C2CCCCC2)cc1", "Dihydroorotate dehydrogenase (quinone), mitochondrial (Homo sapiens, UniProt Q02127)", ">", 50],
  ["CC(C)(C)c1oncc1/C(S)=N/c1ccc(C#N)cc1", "Dihydroorotate dehydrogenase (quinone), mitochondrial (Homo sapiens, UniProt Q02127)", ">", 50],
  ["CC(C)(C)c1oncc1C(=S)Nc1ccc(OC(F)(F)F)cc1", "Dihydroorotate dehydrogenase (quinone), mitochondrial (Homo sapiens, UniProt Q02127)", ">", 50],
  ["CCc1oncc1/C(S)=N/c1ccc(C(F)(F)F)cc1", "Dihydroorotate dehydrogenase (quinone), mitochondrial (Homo sapiens, UniProt Q02127)", "=", 3],
  ["CCCCCCc1oncc1/C(S)=N/c1ccc(C(F)(F)F)cc1", "Dihydroorotate dehydrogenase (quinone), mitochondrial (Homo sapiens, UniProt Q02127)", ">", 50],
  ["Cc1oncc1C(=S)Nc1ccc(C#N)cc1", "Dihydroorotate dehydrogenase (quinone), mitochondrial (Homo sapiens, UniProt Q02127)", "=", 35],
  ["CCc1oncc1C(=S)Nc1ccc(C#N)cc1", "Dihydroorotate dehydrogenase (quinone), mitochondrial (Homo sapiens, UniProt Q02127)", "=", 11],
  ["Cc1oncc1C(=S)Nc1ccc(C(F)(F)F)cc1", "Dihydroorotate dehydrogenase (quinone), mitochondrial (Homo sapiens, UniProt Q02127)", ">", 50],
  ["CC(C)(C)c1oncc1/C(S)=N/c1ccc(C(F)(F)F)cc1", "Dihydroorotate dehydrogenase (quinone), mitochondrial (Homo sapiens, UniProt Q02127)", ">", 50],
  ["Cc1oncc1C(=S)Nc1ccc(N(C)C)cc1", "Dihydroorotate dehydrogenase (quinone), mitochondrial (Homo sapiens, UniProt Q02127)", ">", 50],
  ["CCc1oncc1/C(S)=N/c1ccc(N(C)C)cc1", "Dihydroorotate dehydrogenase (quinone), mitochondrial (Homo sapiens, UniProt Q02127)", "=", 40.4],
  ["N#Cc1ccc(NC(=S)c2cnoc2C2CC2)cc1", "Dihydroorotate dehydrogenase (quinone), mitochondrial (Homo sapiens, UniProt Q02127)", "=", 9.3]
]}
